- Tested on: SK-MEL-28 melanoma
- Test summary: NCI tumour cell line growth inhibition, 48 h
Measure name: TGI

The cases that follow already have their TGI on record.
{"columns": ["Molecule", "TGI"],
 "data": [
  ["CC(=O)O[C@]12CCCC1C1(O)C(O)CCCC12 (stereo partly specified)", "> 100 µM"],
  ["CCN1c2ccccc2C(Cl)(c2ccc(N(C)C)cc2)c2ccccc21", "22.4 µM"],
  ["O=[N+]([O-])c1ccc(N=Nc2c(O)c(S(=O)(=O)O)cc3cc(S(=O)(=O)O)ccc23)cc1", "> 100 µM"],
  ["Cc1cccc(NC(=O)C(=O)C(C(=O)c2ccccc2F)C2OC(=O)c3ccccc32)c1Cl (stereo unspecified)", "> 100 µM"]
]}

Provide the documented TGI with SK-MEL-28 melanoma as the system for CCOC(=O)C1SC(=Nc2ccc(Cl)c(Cl)c2)N=C1C (stereo unspecified)
> 100 µM

// same read-out, input: CC(CO)C1C[C@H](O)[C@@]2(C)CC(=O)C=C(CO)[C@@H]2C1 (stereo partly specified)
> 100 µM

---

- Tested on: HCC-2998 colon
- Test summary: NCI tumour cell line growth inhibition, 48 h
Measure name: GI50

The cases that follow already have their GI50 on record.
{"columns": ["Molecule", "Observed value"],
 "data": [
  ["COc1ccc2c(c1)C(=O)/C(=C/c1ncc([N+](=O)[O-])n1C)O2", "1540 nM"],
  ["N#CC1=C(N)NC(=O)NC12Nc1ccccc1S2 (stereo not given)", "35500 nM"],
  ["CC(=O)O/N=C1/C(c2c(O)[nH]c3cc(Br)ccc23)=Nc2ccccc21", "1680 nM"]
]}

Kindly consider the entry below.
Provide the documented GI50 with HCC-2998 colon as the system for NS(=O)(=O)c1cccc(N=Cc2c(O)[nH]c3ccccc23)c1
> 25000 nM

---

- Test system: KM20L2 colon
- Test summary: NCI tumour cell line growth inhibition, 48 h
Measure name: TGI (µM)
Report as a plain number; the unit µM is understood.

For C/C(=N\N=C(/[Se])N1CC2CCC(CC2)C1)c1ccccn1 , what is its reported TGI?
0.682

// same read-out, input: O=C(N/N=C/c1cc(Cl)cc(Cl)c1[O-])c1ccccc1O.O=C(N/N=C/c1cc(Cl)cc(Cl)c1[O-])c1ccccc1O.[Ni+2]
2.15

// same read-out, input: Cc1cccc(NC(=O)C(=O)C(C(=O)c2ccccc2F)C2OC(=O)c3ccccc32)c1Cl (stereo unspecified)
88.5

---

- System: HCC-2998 colon
- Test summary: NCI tumour cell line growth inhibition, 48 h
GI50 values, listed per item

The cases that follow already have their GI50 on record.
{"columns": ["Molecule", "Target system", "GI50"],
 "data": [
  ["C=C(c1ccc(C(=O)N(C)c2ccccc2N)cc1)C(C)N1C(=O)[C@H]2CCCN2C(=O)c2ccccc21 (stereo partly drawn)", "HCC-2998 colon", "23.6 µM"],
  ["c1ccc(-n2nnnc2-c2cccc3ccccc23)cc1", "HCC-2998 colon", "1.12 µM"],
  ["O=c1cc(-c2ccccc2)[nH]n1-c1nc2ccccc2[nH]1", "HCC-2998 colon", "23.1 µM"],
  ["O=C(Nc1ccccc1O)c1ccc(Oc2cccc(C(=O)Nc3ccccc3O)c2)cc1", "HCC-2998 colon", "3.62 µM"],
  ["N#CCc1ncc(-c2ccc(C(F)(F)F)cc2)c(NC2CCCCCC2)n1", "HCC-2998 colon", "> 10 µM"],
  ["O=C(O)c1ccc(N/C=C2\\C(=O)c3ccccc3OC2O)cc1O (stereo not drawn)", "HCC-2998 colon", "24.1 µg/mL"],
  ["COc1cc(-c2nc3sc4c(c3c(=O)[nH]2)CCCCCC4)cc(OC)c1OC", "HCC-2998 colon", "2.41 µM"]
]}

For O=C(CCl)N1c2ccccc2Sc2ccc3ccccc3c21 , what is its reported GI50?
1.8 µM

Origin of values: PubChem BioAssay (NCI)
